Source listed as ChEMBL document CHEMBL5046289.

# ASSAYED_SYSTEM: Plasma kallikrein (Homo sapiens, UniProt P03952)
# Sequence (P03952 20-390 limits assumed): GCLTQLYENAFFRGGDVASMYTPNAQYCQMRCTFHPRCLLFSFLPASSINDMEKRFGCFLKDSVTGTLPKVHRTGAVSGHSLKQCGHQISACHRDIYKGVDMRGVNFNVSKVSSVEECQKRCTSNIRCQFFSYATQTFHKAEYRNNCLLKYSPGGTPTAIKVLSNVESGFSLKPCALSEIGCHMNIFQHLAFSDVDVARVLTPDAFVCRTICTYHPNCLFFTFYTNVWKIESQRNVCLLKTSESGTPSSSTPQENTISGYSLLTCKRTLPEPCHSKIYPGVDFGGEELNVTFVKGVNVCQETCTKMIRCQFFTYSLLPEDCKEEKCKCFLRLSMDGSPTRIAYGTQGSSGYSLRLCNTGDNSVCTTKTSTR
# Sequence (P03952 391-638 limits assumed): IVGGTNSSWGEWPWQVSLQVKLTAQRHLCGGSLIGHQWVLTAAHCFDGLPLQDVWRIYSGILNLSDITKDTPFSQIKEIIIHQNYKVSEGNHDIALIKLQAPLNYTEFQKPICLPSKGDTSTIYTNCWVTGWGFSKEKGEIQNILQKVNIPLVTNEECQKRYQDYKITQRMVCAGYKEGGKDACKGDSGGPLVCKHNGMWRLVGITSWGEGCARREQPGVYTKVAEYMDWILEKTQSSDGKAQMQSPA
# MEASUREMENT_PROTOCOL: Inhibition of plasma kallikrein (unknown origin) assessed as chromogenic substrate hydrolysis using CS-31(02) as substrate incubated for 1 hr by spectrophotometer based microplate reader method
VALUE_KIND: IC50 (µM)

A selection of reference data follows.
INSERT INTO assay_data (structure_smiles, experimental_result) VALUES
  ('O=C(/C=C/c1cc(Cl)ccc1-n1cnnn1)N[C@@H](CC(=O)N1CCN(CCO)CC1)C(=O)Nc1ccc(C(=O)O)cc1', 3.4),
  ('O=C(/C=C/c1cc(Cl)ccc1-n1cnnn1)N[C@@H](CC(=O)N1CCCN(CC2CC2)CC1)C(=O)Nc1ccc(C(=O)O)cc1', 1.4),
  ('O=C(/C=C/c1cc(Cl)ccc1-n1cnnn1)N[C@@H](CC(=O)N1CCSCC1)C(=O)Nc1ccc(C(=O)O)cc1', 14);

(P) Cc1ccc(CN2CCN(C(=O)C[C@H](NC(=O)/C=C/c3cc(Cl)ccc3-n3cnnn3)C(=O)Nc3ccc(C(=O)O)cc3)CC2)cc1
(Q) CC(=O)N1CCN(C(=O)C[C@H](NC(=O)/C=C/c2cc(Cl)ccc2-n2cnnn2)C(=O)Nc2ccc(C(=O)O)cc2)CC1
(R) O=C(/C=C/c1cc(Cl)ccc1-n1cnnn1)N[C@@H](CC(=O)N1CCN(CC2CC2)CC1)C(=O)Nc1ccc(C(=O)O)cc1
(S) O=C(/C=C/c1cc(Cl)ccc1-n1cnnn1)N[C@@H](CCC(=O)N1CCN(CC2CC2)CC1)C(=O)Nc1ccc(C(=O)O)cc1
Rank order required: IC50, descending. As an answer, provide the labels arranged in the order called for.
Q, S, P, R
(Q: 17.3 µM, S: 3.1 µM, P: 1.2 µM, R: 0.6 µM)
